assay_text: Influence of humidity: water content of crystals after standing at controlled relative humidity
Format: physicochemical
condition_notes: relative humidity 51% RH, 7 days, 25° C.
Experimental: Test Example 1 Influence of Humidity After being allowed to stand the compounds of the present invention (T-614β, T-614γ and T-614 hydrate) and the compound disclosed as Example 5 in Japanese Patent Laid-Open No. 5-97840 (T-614α) under the relative humidity 22, 51, 75 and 93% RH for 7 days at 25° C., the water content of each crystal was measured.
The following compounds are listed with their measured Water content (%) values.
measured_parameter: Water content (%)

> print(dat)
                                   compound  reported.value
1  CS(=O)(=O)Nc1cc2occ(NC=O)c(=O)c2cc1Oc1ccccc1 [T-614α, reference compound]            1.29
2  CS(=O)(=O)Nc1cc2occ(NC=O)c(=O)c2cc1Oc1ccccc1 [T-614 hydrate]            4.15
3  CS(=O)(=O)Nc1cc2occ(NC=O)c(=O)c2cc1Oc1ccccc1 [T-614β]            0.25
4  CS(=O)(=O)Nc1cc2occ(NC=O)c(=O)c2cc1Oc1ccccc1 [T-614γ]            0.33

----------
assay_text: Influence of humidity: water content of crystals after standing at controlled relative humidity
Type: physicochemical
condition_notes: 22 to 93% RH, 7 days, 25° C.
measured_parameter: Change of water content with rising relative humidity

> print(dat)
                                   molecule         reported.value
1  CS(=O)(=O)Nc1cc2occ(NC=O)c(=O)c2cc1Oc1ccccc1 [T-614γ]  almost kept unchanged
2  CS(=O)(=O)Nc1cc2occ(NC=O)c(=O)c2cc1Oc1ccccc1 [T-614 hydrate]  almost kept unchanged
3  CS(=O)(=O)Nc1cc2occ(NC=O)c(=O)c2cc1Oc1ccccc1 [T-614β]  almost kept unchanged

----------
assay_text: Influence of humidity: water content of crystals after standing at controlled relative humidity
Type: physicochemical
condition_notes: relative humidity 75% RH, 7 days, 25° C.
measured_parameter: Water content (%)

> print(dat)
                                   compound  reported.value
1  CS(=O)(=O)Nc1cc2occ(NC=O)c(=O)c2cc1Oc1ccccc1 [T-614 hydrate]            4.08
2  CS(=O)(=O)Nc1cc2occ(NC=O)c(=O)c2cc1Oc1ccccc1 [T-614β]            0.21
3  CS(=O)(=O)Nc1cc2occ(NC=O)c(=O)c2cc1Oc1ccccc1 [T-614α, reference compound]            2.88
4  CS(=O)(=O)Nc1cc2occ(NC=O)c(=O)c2cc1Oc1ccccc1 [T-614γ]            0.52

----------
assay_text: Influence of humidity: water content of crystals after standing at controlled relative humidity
Type: physicochemical
condition_notes: relative humidity 93% RH, 7 days, 25° C.
// reported Water content (%) per item
measured_parameter: Water content (%)

> print(dat)
                                   compound  reported.value
1  CS(=O)(=O)Nc1cc2occ(NC=O)c(=O)c2cc1Oc1ccccc1 [T-614 hydrate]           4.03%
2  CS(=O)(=O)Nc1cc2occ(NC=O)c(=O)c2cc1Oc1ccccc1 [T-614β]           0.18%
3  CS(=O)(=O)Nc1cc2occ(NC=O)c(=O)c2cc1Oc1ccccc1 [T-614γ]           0.65%
4  CS(=O)(=O)Nc1cc2occ(NC=O)c(=O)c2cc1Oc1ccccc1 [T-614α, reference compound]           3.62%
